- measuredTarget: UniProt P21554
- Sequence (P21554 whole entry): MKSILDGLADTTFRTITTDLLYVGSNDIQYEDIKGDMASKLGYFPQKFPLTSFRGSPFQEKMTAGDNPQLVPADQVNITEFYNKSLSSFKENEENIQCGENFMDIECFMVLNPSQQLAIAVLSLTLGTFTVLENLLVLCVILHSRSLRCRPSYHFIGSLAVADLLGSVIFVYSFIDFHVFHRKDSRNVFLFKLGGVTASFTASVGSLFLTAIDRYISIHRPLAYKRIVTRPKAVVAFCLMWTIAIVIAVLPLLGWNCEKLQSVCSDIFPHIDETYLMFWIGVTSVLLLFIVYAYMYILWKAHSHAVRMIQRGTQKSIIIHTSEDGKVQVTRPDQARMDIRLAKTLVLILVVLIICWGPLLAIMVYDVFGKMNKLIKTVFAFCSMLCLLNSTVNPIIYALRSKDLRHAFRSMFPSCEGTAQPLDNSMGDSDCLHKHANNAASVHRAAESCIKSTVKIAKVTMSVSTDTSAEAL
- assayText: cell-based
pEC50: −log10 of the molar value.

| itemSmiles | pEC50 |
| --- | --- |
| CC(C)CNS(=O)(=O)N1CCOc2ncc(C(=O)NC(C)(C)CO)cc21 | < 4.52 |
| COc1ccc(S(=O)(=O)N2CCOc3ncc(C(=O)NCC(C)(C)O)cc32)cc1F | < 4.52 |
| O=C(c1noc(-c2cnc3c(c2)N(S(=O)(=O)c2ccc(F)cc2)CCO3)n1)N1CCOCC1 | < 4.52 |
| CCC(C)(C)NC(=O)c1cnc2c(c1)N(S(=O)(=O)N1CCc3ccccc3C1)CCO2 | < 4.52 |
| O=C(c1cnc2c(c1)N(S(=O)(=O)c1ccccc1)CCO2)N1CCCCC1 | < 4.52 |
| O=C(c1cnc2c(c1)N(S(=O)(=O)c1ccc(C(F)(F)F)cc1)CCO2)N1CCCCC1 | < 4.52 |
| O=C(NC1CCCC1)c1cnc2c(c1)N(Cc1ccccc1)C(=O)CO2 | < 4.52 |
| CN(C)S(=O)(=O)N1CCOc2ncc(C(=O)NC(C)(C)CO)cc21 | < 4.52 |
| CC(C)(C)NC(=O)c1cnc2c(c1)N(S(=O)(=O)c1cccc(OC(F)(F)F)c1)CCO2 | < 4.52 |
| Cc1cccc(CS(=O)(=O)N2CCOc3ncc(C(=O)NC(C)(C)C)cc32)c1 | < 4.52 |
| CC(C)(N)CNC(=O)c1cnc2c(c1)N(S(=O)(=O)c1ccc(C(F)(F)F)cc1)CCO2 | < 4.52 |
| CC(C)(C)c1cc(NC(=O)c2cnc3c(c2)N(S(=O)(=O)N2CCC(c4ccccc4)CC2)CCO3)no1 | < 4.52 |
| CC1CCN(S(=O)(=O)N2CCOc3ncc(C(=O)NC(C)(C)C)cc32)CC1 | < 4.52 |
| CC(C)(CO)NC(=O)c1cnc2c(c1)N(S(=O)(=O)N1CCCCC1)CCO2 | < 4.52 |
| CC(C)(CO)NC(=O)c1cnc2c(c1)N(S(=O)(=O)N1CCC(c3ccccc3)CC1)CCO2 | < 4.52 |
| CC(C)(C)CC(C)(C)NC(=O)c1cnc2c(c1)N(S(=O)(=O)c1ccc(C(F)(F)F)cc1)CCO2 | < 4.52 |
| CC(C)(O)CNC(=O)c1cnc2c(c1)N(S(=O)(=O)c1ccc(F)cc1F)CCO2 | < 4.52 |

* * *

- measuredTarget: rat CB2 receptor (Rattus norvegicus, UniProt Q9QZN9)
- Sequence (Q9QZN9 whole entry): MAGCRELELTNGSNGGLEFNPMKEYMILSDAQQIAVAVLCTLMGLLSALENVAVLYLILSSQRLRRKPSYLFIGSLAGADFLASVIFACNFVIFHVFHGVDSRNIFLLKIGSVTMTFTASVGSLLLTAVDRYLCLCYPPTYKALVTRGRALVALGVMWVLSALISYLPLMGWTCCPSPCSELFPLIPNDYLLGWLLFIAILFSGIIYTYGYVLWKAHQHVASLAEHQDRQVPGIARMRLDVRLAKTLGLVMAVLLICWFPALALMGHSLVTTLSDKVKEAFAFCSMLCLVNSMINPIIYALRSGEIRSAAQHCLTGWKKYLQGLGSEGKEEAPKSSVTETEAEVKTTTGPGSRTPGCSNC
- assayText: cell-based
- Format: cell-based
pEC50: −log10 of the molar value.
Below, each entry is listed with its recorded pEC50.

| itemSmiles | pEC50 |
| --- | --- |
| O=C(O)[C@H]1CCCCN1C(=O)c1cnc2c(c1)N(S(=O)(=O)c1ccc(C(F)(F)F)cc1)CCO2 | < 4.52 |
| CCC(C)(C)NC(=O)c1cnc2c(c1)N(S(=O)(=O)N1CCOCC1)CCO2 | ≥ 7.52 |
| CC(C)(O)CNC(=O)c1cnc2c(c1)N(S(=O)(=O)c1ccc(F)c(F)c1)CCO2 | ≥ 7.52 |
| CC1CCN(S(=O)(=O)N2CCOc3ncc(C(=O)NC(C)(C)C)cc32)CC1 | ≥ 7.52 |

* * *

- measuredTarget: human CB2 receptor (Homo sapiens)
- Sequence (P34972 whole entry): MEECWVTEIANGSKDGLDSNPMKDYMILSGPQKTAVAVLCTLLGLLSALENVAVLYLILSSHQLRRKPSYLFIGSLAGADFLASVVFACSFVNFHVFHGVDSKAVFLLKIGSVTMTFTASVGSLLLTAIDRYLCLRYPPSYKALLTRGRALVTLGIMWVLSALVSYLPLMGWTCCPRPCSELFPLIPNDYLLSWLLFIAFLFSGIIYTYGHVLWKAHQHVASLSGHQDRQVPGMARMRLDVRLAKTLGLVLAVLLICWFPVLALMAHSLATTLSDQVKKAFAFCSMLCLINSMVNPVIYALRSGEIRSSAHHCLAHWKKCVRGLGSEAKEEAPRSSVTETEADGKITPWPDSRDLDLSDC
- assayText: cell-based
- Type: cell-based
pEC50: −log10 of the molar value.

| itemSmiles | pEC50 |
| --- | --- |
| CC(C)(CO)CNC(=O)c1cnc2c(c1)N(S(=O)(=O)N1CCC(Cl)CC1)CCO2 | < 4.52 |
| CC(C)(C)NC(=O)c1cnc2c(c1)N(S(=O)(=O)N1CCC(c3ccccc3)CC1)CCO2 | < 4.52 |
| CCC(C)(C)NC(=O)c1cnc2c(c1)N(S(=O)(=O)N1CCc3ccccc3C1)CCO2 | < 4.52 |
| CC(C)(CO)NC(=O)c1cnc2c(c1)N(S(=O)(=O)N1CCc3ccccc3C1)CCO2 | < 4.52 |
| CC(C)(CO)NC(=O)c1cnc2c(c1)N(S(=O)(=O)N1CCC(c3ccccc3)CC1)CCO2 | < 4.52 |
| CCC(C)(C)NC(=O)c1cnc2c(c1)N(S(=O)(=O)N1CCC(N3CCCC3)CC1)CCO2 | < 4.52 |
| CC(C)(C)NC(=O)c1cnc2c(c1)N(S(=O)(=O)c1ccc(C#N)cc1)CCO2 | ≥ 7.52 |
| CC(C)(CO)NC(=O)c1cnc2c(c1)N(S(=O)(=O)N1CCC(Cl)CC1)CCO2 | < 4.52 |
| CCC(C)(C)NC(=O)c1cnc2c(c1)N(S(=O)(=O)c1ccc(C(F)(F)F)cc1)CCO2 | ≥ 7.52 |
| CN1CCN(S(=O)(=O)N2CCOc3ncc(C(=O)NC(C)(C)C)cc32)CC1 | < 4.52 |
| CC(C)(C)NC(=O)c1cnc2c(c1)N(S(=O)(=O)c1cccc3ccccc13)CCO2 | < 4.52 |
| CC(C)(CO)NC(=O)c1cnc2c(c1)N(S(=O)(=O)N1CC(F)(F)C1)CCO2 | < 4.52 |
| CCC(C)(C)NC(=O)c1cnc2c(c1)N(S(=O)(=O)N1CCC(C(F)(F)F)CC1)CCO2 | ≥ 7.52 |
| CCC(C)(C)NC(=O)c1cnc2c(c1)N(S(=O)(=O)N1CC(F)(F)C1)CCO2 | < 4.52 |
| CC(C)(C)NC(=O)c1cnc2c(c1)N(S(=O)(=O)c1ccc(Cl)c(Cl)c1)CCO2 | ≥ 7.52 |
| O=C(c1cnc2c(c1)N(S(=O)(=O)c1ccc(Cl)c(Cl)c1)CCO2)N1CCN(c2ccccn2)CC1 | < 4.52 |
| CC(C)(C)NC(=O)c1cnc2c(c1)N(Cc1ccc(F)cc1)C(=O)CO2 | ≥ 7.52 |
| CCC(C)(C)NC(=O)c1cnc2c(c1)N(S(=O)(=O)N1CCC(Cl)CC1)CCO2 | < 4.52 |
| CCS(=O)(=O)N1CCOc2ncc(C(=O)NC(C)(C)C)cc21 | < 4.52 |
| Cc1cc(S(=O)(=O)N2CCOc3ncc(C(=O)NC(C)(C)C)cc32)c(C)s1 | < 4.52 |
| CC(C)(C)c1cc(NC(=O)c2cnc3c(c2)N(S(=O)(=O)N2CCC(C(F)(F)F)CC2)CCO3)on1 | < 4.52 |
| CC(C)(C)NC(=O)c1cnc2c(c1)N(S(=O)(=O)c1cc(Cl)cc(Cl)c1)CCO2 | < 4.52 |
| O=C(NC1CCCC1)c1cnc2c(c1)N(S(=O)(=O)c1ccc(Cl)cc1)CCO2 | ≥ 7.52 |
| CC(C)(C)NC(=O)c1cnc2c(c1)N(S(=O)(=O)N1CC(F)(F)C1)CCO2 | < 4.52 |
